- measured.target: pre-existing anti-scFv903 antibodies in human serum H64 (human)
- test.details: competition ADA bridging ELISA
# signal change in competition ELISA (% reduction in OD) listing for each entry below
Output spec: scalar in %, unitless text.

These recorded examples may help you get a feel for the data.
* scFv 903 (scFv) scFv: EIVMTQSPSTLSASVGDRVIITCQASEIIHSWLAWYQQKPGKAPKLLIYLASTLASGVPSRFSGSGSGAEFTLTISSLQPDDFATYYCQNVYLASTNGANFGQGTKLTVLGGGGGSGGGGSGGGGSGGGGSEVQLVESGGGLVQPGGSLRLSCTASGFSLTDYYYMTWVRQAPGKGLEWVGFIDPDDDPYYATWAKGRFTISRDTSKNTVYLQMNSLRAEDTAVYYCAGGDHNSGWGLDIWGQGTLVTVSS | -97
* scFv105 (scFv) scFv: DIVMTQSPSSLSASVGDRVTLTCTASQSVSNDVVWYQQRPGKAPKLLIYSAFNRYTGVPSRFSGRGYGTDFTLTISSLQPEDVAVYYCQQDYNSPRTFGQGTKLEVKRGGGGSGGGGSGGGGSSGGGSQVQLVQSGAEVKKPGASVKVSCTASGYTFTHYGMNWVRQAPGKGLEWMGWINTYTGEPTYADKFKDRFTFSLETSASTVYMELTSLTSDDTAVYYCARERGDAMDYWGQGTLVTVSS | -55

Okay, now this binder:
For reference, reported signal change in competition ELISA (% reduction in OD) for scFv 961 (scFv) scFv: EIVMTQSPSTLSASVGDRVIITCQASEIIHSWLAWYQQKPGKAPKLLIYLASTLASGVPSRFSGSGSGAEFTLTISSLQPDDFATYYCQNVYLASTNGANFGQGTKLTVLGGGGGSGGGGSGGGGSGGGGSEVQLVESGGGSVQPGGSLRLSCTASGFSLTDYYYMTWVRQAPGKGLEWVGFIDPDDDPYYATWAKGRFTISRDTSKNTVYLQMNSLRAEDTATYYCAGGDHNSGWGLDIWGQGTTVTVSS stands at -14

The measurements presented in this section are drawn from patent US20210214461A1.
